Assay: in vitro
Conditions: human, Caco-2, pH 7.4
Quick reference: Papp A→B at 90 min, 10 μM of the listed items.

compound=CN1CCN(c2cccc3nc([C@H]4CCC[C@@H](c5ncn6ccccc56)N4C)[nH]c23)CC1 metricname="Papp A→B at 90 min, 10 μM" experimentalvalue="10 to 30 ×10⁻⁶ cm/s"
compound=Cc1cccnc1[C@@H]1CCC[C@H](c2nc3cccc(N4CCN(C)C(C)(C)C4)c3[nH]2)N1C metricname="Papp A→B at 90 min, 10 μM" experimentalvalue="10 to 30 ×10⁻⁶ cm/s"
compound=CCN1[C@@H](c2nc3ccccc3n2CC2CCN(C)CC2)CCC[C@H]1c1ncccc1C metricname="Papp A→B at 90 min, 10 μM" experimentalvalue="0.1 to 10 ×10⁻⁶ cm/s"
compound=Cc1cccnc1[C@@H]1CCC[C@H](c2nc3cccc(N4CCNCC4)c3[nH]2)N1C metricname="Papp A→B at 90 min, 10 μM" experimentalvalue="0.1 to 10 ×10⁻⁶ cm/s"
compound=Cc1cccnc1[C@@H]1CCC[C@H](c2nc3ccccc3n2CC2CCNCC2)N1C metricname="Papp A→B at 90 min, 10 μM" experimentalvalue="0.1 to 10 ×10⁻⁶ cm/s"
compound=Cc1ccnc([C@@H]2CCC[C@H](c3nc4cccc(N5CCN(C)CC5)c4[nH]3)N2C)c1 metricname="Papp A→B at 90 min, 10 μM" experimentalvalue="10 to 30 ×10⁻⁶ cm/s"
compound=Cc1cccnc1[C@@H]1C[C@H](O)C[C@H](c2nc3cccc(N4CCN(C)CC4)c3[nH]2)N1C metricname="Papp A→B at 90 min, 10 μM" experimentalvalue="0.1 to 10 ×10⁻⁶ cm/s"
compound=Cc1cccnc1[C@@H]1CCC[C@H](c2nc3cccc(N4CCN(C)C5(CC5)C4)c3[nH]2)N1C metricname="Papp A→B at 90 min, 10 μM" experimentalvalue="> 30 ×10⁻⁶ cm/s"

// below: Papp A→B at 90 min, 10 μM requested for another compound
Req: Answer with reported Papp A→B at 90 min, 10 μM of CN1CCN(c2cccc3nc([C@H]4CCC[C@@H](c5ncccc5C5CC5)N4C)[nH]c23)CC1 (stereo in doubt)
Resp: 10 to 30 ×10⁻⁶ cm/s

----------
Test: MTD, pharmacokinetics and brain penetration after PO administration
Format: in vivo, male C57BL/6 mice
Settings: male, C57BL/6, plasma, MTD mouse, multiple administration, D 5-300 mg/kg, read-out: t½ (converted)
metricName: half-life (h)
Please reply with the bare figure in h and do not write the unit itself.

Req: Please list half-life recorded for the compound Cc1cccnc1[C@@H]1CCC[C@H](c2nc3cccc(N4CCN(C)CC4)c3[nH]2)N1C (racemic)
Resp: 6.1

----------
Assay: in vitro
Settings: human, Caco-2, pH 7.4
Description: Example 37: Caco-2 Permeability Assay The goal of this assay was to evaluate the intestinal absorption potential of drug candidates using Caco-2 cell lines. HBSS buffer with 0.3% DMSO and 5 μM LY: add 150 μL DMSO and 50 μL LY (5 mM) into 50 ml HBSS buffer (pH 7.4). HBSS buffer with 0.1% DMSO and 5 μM LY: add 50 μL DMSO and 50 μL LY (5 mM) into 50 mL HBSS buffer (pH 7.4). […] 1. Papp values were calculated based on calculated concentrations. […]
The reader will find reported Papp B→A at 90 min, 10 μM values listed item by item below.

Known results for molecules:
molecule=Cc1cccnc1[C@@H]1CCC[C@H](c2nc3cccc(N4CCN(C)CC4)c3[nH]2)N1 metricname="Papp B→A at 90 min, 10 μM" experimentalvalue="10 to 30 ×10⁻⁶ cm/s"
molecule=CN1CCN(c2cccc3nc([C@H]4CCC[C@@H](c5nccc6ccccc56)N4C)[nH]c23)CC1 metricname="Papp B→A at 90 min, 10 μM" experimentalvalue="0.1 to 10 ×10⁻⁶ cm/s"
molecule=Cc1ccnc([C@@H]2CCC[C@H](c3nc4cccc(N5CCN(C)CC5)c4[nH]3)N2C)c1Cl metricname="Papp B→A at 90 min, 10 μM" experimentalvalue="10 to 30 ×10⁻⁶ cm/s"
molecule="Cc1cccnc1[C@@H]1CCC[C@H](c2nc3cccc(N4CC5CC4CN5C)c3[nH]2)N1C (stereo partly drawn)" metricname="Papp B→A at 90 min, 10 μM" experimentalvalue="10 to 30 ×10⁻⁶ cm/s"
molecule=Cc1cccnc1[C@@H]1CCC[C@H](c2nc3cccc(N4C5CCC4CNC5)c3[nH]2)N1C metricname="Papp B→A at 90 min, 10 μM" experimentalvalue="> 30 ×10⁻⁶ cm/s"

Turning to the following molecule.
Req: Output Papp B→A at 90 min, 10 μM of `CO[C@@H]1C[C@H](c2nc3cccc(N4CCN(C)CC4)c3[nH]2)N(C)[C@H](c2ncccc2C)C1`
Resp: 10 to 30 ×10⁻⁶ cm/s
